Exercise: for every item that follows, state its recorded viability at 28.5 h, 10 µM.
# assay comment: in vitro
# condition context: human, hela cells, % viability
Numbers only, in %.

[[record]]
compound = "COc1cccc(C(=O)Nc2nc3ccccc3n2Cc2ccccc2)c1OC [CBK299811]"
reported_result = 91.4

[[record]]
compound = "COc1cccc(-n2ncc(-c3cccnc3)n2)c1 [CBK112813]"
reported_result = 89.9

[[record]]
compound = "CCOc1ccc(-c2nc(-c3cccc(NC(=O)c4ccccc4C(=O)O)c3)no2)cc1 [CBK299832]"
reported_result = 85.2

[[record]]
compound = "CSc1nc(NC(=O)C2CCCO2)cc(N2CCNCC2)n1 (centres unmarked) [CBK026740T]"
reported_result = 90.5

[[record]]
compound = "CC(=O)N1CCc2sccc2C1c1ccccc1NC(=O)C1CC1 (centres unmarked) [CBK282903]"
reported_result = 95


Report viability at 28.5 h, 10 µM for each item below.
1. CCCn1c(SCC(=O)N2CCN(S(=O)(=O)c3ccc(C)cc3C)CC2)n[nH]c1=O [CBK295590]
2. O=c1ccc(-c2cccs2)nn1C[C@H]1CCCN1 [CBK284313]
3. CN(C)CCN1CCN(c2cncc(-c3cccc(C(=O)O)c3)n2)CC1 [CBK065443]
4. COCCNC(=O)c1cc(-c2cccc(C(=O)N(C)C)c2)cnc1N1CCOCC1 [CBK076464]
5. CC(C)(C)C(=O)Nc1ccc(S(=O)(=O)NC2CCCCC2)cc1 [CBK268783]
6. COCCCNCCSc1ccc(Cl)cc1 [CBK265093]
7. COCCn1c(SC(C)C(=O)NC2CC2)nc2ccc(Br)cc2c1=O (centres unmarked) [CBK305481]

Result block:
1: 104; 2: 88.6; 3: 104; 4: 97.7; 5: 118; 6: 95; 7: 108

Hey, can you go through the list below and give me viability at 28.5 h, 10 µM for every item?
1. CCN(CC)C(=O)CCCc1[nH]nc(O)c1Cc1c(Cl)cccc1Cl [CBK081524]
2. COc1cc2c(cc1OC)CN(CC(N)=O)CC2 [CBK126391]
3. CCCN1CCN(c2ncnc3sc(C4COc5ccccc5O4)cc23)CC1 (centres unmarked) [CBK269396]
4. O=C(Nc1nc(-c2ccco2)c(-c2ccncc2)s1)C1CC1 [CBK284494]
5. Cc1ccc(F)c(OC2(C(=O)O)CCN(Cc3cnc(C)nc3)CC2)c1 [CBK306860]
6. Cc1c(OCc2ccc(C(=O)O)cc2)ccc2c(-c3ccccc3)cc(=O)oc12 [CBK296080]
7. O=S(=O)(Cc1ccc(-c2nc(-c3ccncc3)no2)o1)c1ccccc1 [CBK288579]
8. O=S(=O)(Nc1ccc(C(F)(F)F)cc1Cl)c1cc(Br)c(Cl)s1 [CBK057196]

Result block:
[89, 86.8, 98.1, 87.4, 100, 117, 96.6, 78.9]

====

# assay comment: in vitro
# condition context: human, hela cells, % viability
endpoint: viability at 28.5 h, 10 µM
Enter the number, and then the unit.

[[record]]
molecule = "CCOC(=O)c1cnc(C2CC2)nc1NCc1cccc(C)c1C"
reported_result = "102%"


// for each molecule below, give its viability at 28.5 h, 10 µM
1. Cn1ccc(C2CCCCCN2C(=O)c2cc(C3CC3)on2)n1 (centres unmarked)
2. COc1cc(OC)nc(C(NC(=O)C2CCN(Cc3nccs3)CC2)c2ccc(Cl)cc2)n1 (centres unmarked)
3. CCn1c(COc2cccc3cccnc23)nnc1SCC(=O)c1ccc(F)cc1
4. COc1cc(C2C(C#N)=C(N)OC3=C2C(=O)CC(c2ccccc2)C3)cc(Br)c1O (centres unmarked)
5. COC(=O)C(CC(=O)c1ccc(Br)cc1)n1cccn1 (centres unmarked)
6. Cc1ccccc1S(=O)(=O)N(c1ccc(C(C)(C)C)cc1)C1CCNCC1 [CBK165074T]

Result block:
104%
85.8%
86.8%
87.1%
104%
97.8%

I have 3 molecules here; please give me viability at 28.5 h, 10 µM for each one.
1. O=C(c1ccccc1)c1ccc(CNC(=O)C2(c3ccccc3)CCCC2)cc1
2. CC(C)[C@@H](CO)NC(=O)c1cnc(-c2cccc(C(F)(F)F)c2)c(-c2cccnc2)c1
3. c1ccc2c(c1)CCC(Oc1cncc(N3CCNCC3)n1)C2 (centres unmarked) [CBK172295G]

Result block:
["87.6%", "112%", "97%"]

Parameters: items (list). Returns: viability at 28.5 h, 10 µM for each item.
1. Cc1cc(-c2cn3ccnc3c(NC3CC3)n2)cc(C)c1O
2. O=c1[nH]c(=O)c2ccn([C@H]3C[C@@H](O)[C@@H](CO)O3)c2[nH]1
3. O=C(Nc1ccc(F)cc1)N1C2CCC1CC(O)(c1cccnc1)C2 (centres unmarked)
4. C[N+]1(CC(=O)c2ccccc2)C2CCC1CC(OC(=O)C(O)c1ccccc1)C2 (centres unmarked) [CBK022712C]
5. OC(CN1CCC(O)(c2ccc(F)cc2)CC1)c1ccc(Cl)cc1 (centres unmarked)

Result block:
1: 86.5%; 2: 99%; 3: 89.9%; 4: 120%; 5: 89.6%

Please give viability at 28.5 h, 10 µM, item by item, for the list that follows.
1. CC(=O)Nc1ccc(S(=O)(=O)N2CCN(C/C=C/c3ccccc3)CC2)cc1
2. COc1ccc(NC(=O)CN2CCN(S(=O)(=O)N(C)C)CC2)cc1
3. CS(=O)(=O)N1CC2(CCN(Cc3nc4ccccc4[nH]3)CC2)c2ccccc21
4. Clc1ccccc1-c1nccnc1NCCc1ccncc1
5. c1ccc2sc(-c3cc(N4CCN(CCN5CCCC5)CC4)ncn3)cc2c1
6. O=C1N=C(NC2CCCCCC2)S[C@@H]1CC1CCCCC1

Result block:
1: 114%; 2: 93.3%; 3: 89.2%; 4: 98.1%; 5: 89.3%; 6: 95.8%

====

Record form. Attribute: viability at 28.5 h, 10 µM. Fill in for each entry.
# assay comment: in vitro
# condition context: human, hela cells, % viability
Answers are plain numbers, in %.

Answered examples (5):
[[record]]
compound = "O=C(C1CC1)N1CCC(c2nc(Cc3cccs3)no2)C1 (stereo not shown)"
endpoint = "viability at 28.5 h, 10 µM"
reported_result = 89.6

[[record]]
compound = "CC(C)(C)NCC(O)COc1cccc2c1C[C@H](O)[C@H](O)C2 (stereo partly shown)"
endpoint = "viability at 28.5 h, 10 µM"
reported_result = 102

[[record]]
compound = "Cc1ccc(-n2cccn2)cc1S(=O)(=O)NCCN1CCCCC1CO (stereo not shown)"
endpoint = "viability at 28.5 h, 10 µM"
reported_result = 122

[[record]]
compound = "CCNC(=O)Nc1ncc(-c2ccsc2)c2cccnc12"
endpoint = "viability at 28.5 h, 10 µM"
reported_result = 103

[[record]]
compound = "COc1ccccc1-c1nccnc1OCc1cccc(OC)c1OC"
endpoint = "viability at 28.5 h, 10 µM"
reported_result = 81.2


Provide viability at 28.5 h, 10 µM for all items below, preserving their order.
1. Oc1nc(CN2CCN(Cc3ccc4c(c3)OCO4)CC2)nc2ccccc12
2. O=C1c2ccc(S(=O)(=O)c3ccc4c(c3)C(=O)N(c3nccs3)C4=O)cc2C(=O)N1c1nccs1
3. CC(=O)Nc1ccc(-c2cc(Nc3ccc(NC(=O)c4ccc(N)cc4)cc3)ncn2)cc1
4. O=C(O)c1ccc(NC(=O)c2cc(S(=O)(=O)N3CCCCC3)cs2)cc1
5. Cc1c(C)n(Cc2ccccc2)c2ccc(C(=O)OCCN3CCOCC3)cc12
6. CC(=O)Nc1cccc(NC(=O)c2ccc(CN3CCCCC3)cc2)c1
7. CC(C)(C)C1CCc2c(sc(NC(=O)c3cccs3)c2C(N)=O)C1 (stereo not shown)

Result block:
[110, 105, 97, 101, 104, 103, 85.4]

// input: 2 compounds below; output: viability at 28.5 h, 10 µM for each
1. N#C/C(=C\c1ccc(-c2ccc(C(=O)O)c(O)c2)o1)c1nc2ccccc2[nH]1
2. O=C(O)C(c1c[nH]c2cc(CO)ccc12)N1CCCN(c2ccc(C(F)(F)F)cn2)CC1 (stereo not shown)

Result block:
1: 91.7; 2: 85.3

Batch request: viability at 28.5 h, 10 µM for each of the following compounds.
1. COCCc1nc(Cc2ccc(OC)cc2)nn1CC1COCCO1 (stereo not shown)
2. Oc1ccc2ccccc2c1/C=N/Nc1nnc(-c2ccccc2)c(-c2ccccc2)n1
3. O=C(CCc1ccccc1)N1CCCC1c1n[nH]cc1-c1ccncc1 (stereo not shown)
4. CCCN(C(=O)OC(C)(C)C)C1CCc2[nH]c(=O)c(C#N)cc2C1 (stereo not shown)
5. O=C(NC(c1ccccc1)c1ccco1)C1CCN(Cc2cccc(Cl)c2)CC1 (stereo not shown)

Result block:
1: 89.7; 2: 91.9; 3: 91.4; 4: 99.7; 5: 103
